Value source: patent US20240182575A1

Molecular target: T1, cynomolgus monkey CTLA4 on stably transfected CHO-K1 cells (human CTLA4 cDNA with S13N, I17T and L105M) (human backbone with cynomolgus monkey …, UniProt P16410 36-223)
T1 chain: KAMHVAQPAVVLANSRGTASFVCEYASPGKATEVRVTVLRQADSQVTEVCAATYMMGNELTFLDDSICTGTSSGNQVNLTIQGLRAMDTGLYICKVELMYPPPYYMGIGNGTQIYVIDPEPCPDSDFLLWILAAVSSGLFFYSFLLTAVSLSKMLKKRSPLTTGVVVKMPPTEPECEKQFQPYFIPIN
Assay: FACS, direct binding titration on cyno CTLA4 CHO cells (head prints IC50)
Observed Property: IC50 (nM)
Response body: numeric value in nM, unit text excluded.

See these solved cases before continuing.
4CTLAPMP11E3 (VHH, also called 11E3 WT; not shown: C-terminal c-myc tag and His6 tag) VHH: EVQLVESGGGLVEPGGSLRLSCAASGSISSYNVMGWYRQAPGQQRDLVAHIASNGEIMYADSAKGRFTISRDNAKKTVYLQMNSLKPEDTAVYYCKLWVLGNDYWGQGTQVTVSS ... 4.5
4CTLAPMP02A5 (VHH, short label tied to the entry by the clone code only; not shown: C-terminal c-myc tag and His6 tag) VHH: EVQLVESGGGLVQAGGSLRLSCAASGRTNSTTLMGWSRRAPGKEREFVAAISGSGTLTSYADSVKGRFAISRDNAKNTVYLQMNSLKPEDTAIYYCAAGLTSWALIPSRTLTTWGQGTQVTVSS ... 7.74
4CTLAPMP02F2 (VHH, short label tied to the entry by the clone code only; not shown: C-terminal c-myc tag and His6 tag) VHH: EVQLMESGGGLVQTGGSLRLSCAASGRTFSNYTMGWFRQAPGKDREFVAAISRSGSLKAYADSVKGRFTPSRDNAKKMAYLQMNSLKPEDTAVYYCAAAPVPWGTRPSLFPYDSWGQGTQVTVSS ... 2.42
4CTLAPMP02F4 (VHH, short label tied to the entry by the clone code only; not shown: C-terminal c-myc tag and His6 tag) VHH: EVQLVESGGGLVQTGGSLRLSCAASGRTFSNYTMGWFRQAPGKDREFVAAISRSGALKAYADSVKGRFTPSRDNAKKMAYLQMNSLKPEDTAVYYCAAAPVPWGTRPSFFPYDSWGQGTQVTVSS ... 2.36
4CTLAPMP12H2 (VHH, short label tied to the entry by the clone code only; not shown: C-terminal c-myc tag and His6 tag) VHH: EVQLVESGGGLVEPGGSLRLSCAASGSISSYNVMGWYRQAPGQQRDLVAHIASNGEIMYADSAKGRFTISRDNAKKTVYLQMNSLKPEDTAVYYCKLWVLGNDYWGQRTQVTVSS ... 5.65

The value of IC50 measured for the binder 4CTLAPMP02G2 (VHH, short label tied to the entry by the clone code only; not shown: C-terminal c-myc tag and His6 tag) VHH: EVQLVESRGGLVQTGGSLRLSCAASGRTFSNYTMGWFRQAPGKDREFVAAISRSGSLKSYADSVKGRFTISRDNAKKMAYLQMNSLKPEDTAVYYCAAAPVPWGTRPSFFTYDSWGQGTQVTVSS turned out to be 2.08

The value of IC50 measured for the binder 4CTLAPMP06C10 (VHH, short label tied to the entry by the clone code only; not shown: C-terminal c-myc tag and His6 tag) VHH: EVQLVESGGGLVQAGGSLRLSCAASGRTFSNYTIAYFRQAPGREREFAAAISPHGTLRSFADSVKDRFTISRDNAKNTVWLQMNSLKLEDTAVYYCAADPSGWGLRQHSENEYPYWGLGTQVTVSS turned out to be 5.47

The value of IC50 measured for the binder 4CTLAPMP2G9 (VHH, short label tied to the entry by the clone code only; not shown: C-terminal c-myc tag and His6 tag) VHH: EVQLVKSGGQLVQAGGSLRLSCAATGRTYNSYPLGWFRQAPGKEREFVAAISASGTLRAYADSVKGRFTISRDSAKNTVYLQMNNLKPEDTAVYYCARARSVGWRASHHLSDYDNWGQGTQVTVSS turned out to be 2.66

The value of IC50 measured for the binder 4CTLAPMP03C4 (VHH, short label tied to the entry by the clone code only; not shown: C-terminal c-myc tag and His6 tag) VHH: EVQLVESGGGLVQAGGSLRLSCAASGGTFSFYGMGWFRQAPGKEREFVADIRTSAGRTYYADSVKGRFTISRDNAKNTVYLQMNSLKPEDTAVYYCAAEMSGISGWDYWGQGTQVTVSS turned out to be 6.73

The value of IC50 measured for the binder 4CTLAPMP11F1 (VHH, short label tied to the entry by the clone code only; also called 11F1 WT; not shown: C-terminal c-myc tag and His6 tag) VHH: EVQLVESGGGLVQAGGSLRLSCAASGGTFSFYGMGWFRQAPGKEQEFVADIRTSAGRTYYADSVKGRFTISRDNAKNTVYLQMNSLKPEDTAVYYCAAEMSGISGWDYWGQGTQVTVSS turned out to be 5.51
